The measured values listed here are drawn from paper PMC5563081.

MEASUREMENT_NOTES: Stability in mouse hepatocytes
Assay type: in vitro ADME

{"columns": ["COMPOUND", "hepatocyte CLint [µL/min/1e6 cells]"],
 "data": [
  ["CN(C)CCNC(=O)c1ccc(-c2ccc(-c3ccc(Cl)cc3)n2-c2ccccc2C(F)(F)F)cc1 [Poloppin-II]", 18]
]}

###

MEASUREMENT_NOTES: Pharmacokinetic study, oral administration in mice
Format: in vivo, mouse
CONDITIONS_USED: mouse, plasma, oral, 10 mg/kg, read-out: volume of distribution

{"columns": ["MOLECULE", "Vd (L/kg)"],
 "data": [
  ["CN(C)CCNC(=O)c1ccc(-c2ccc(-c3ccc(Cl)cc3)n2-c2ccccc2C(F)(F)F)cc1 [Poloppin-II]", 23]
]}

###

System: Panc-1
MEASUREMENT_NOTES: Cell viability (SRB), Panc-1
Type: cell-based, human
CONDITIONS_USED: Homo sapiens, PANC-1, 72 h, read-out: EC50, % survival, Panc-1, siMET, 72 h
ASSAY_READOUT: EC50 (µM)

{"columns": ["COMPOUND", "ASSAY_READOUT", "NUMBER"],
 "data": [
  ["O=C(O)CCc1ccc(-c2ccc(Br)cc2)n1-c1ccccc1C(F)(F)F [Poloppin]", "EC50", 16.8]
]}

###

ASSAY_SYSTEM: UniProt P53350
Sequence (P53350 345-603): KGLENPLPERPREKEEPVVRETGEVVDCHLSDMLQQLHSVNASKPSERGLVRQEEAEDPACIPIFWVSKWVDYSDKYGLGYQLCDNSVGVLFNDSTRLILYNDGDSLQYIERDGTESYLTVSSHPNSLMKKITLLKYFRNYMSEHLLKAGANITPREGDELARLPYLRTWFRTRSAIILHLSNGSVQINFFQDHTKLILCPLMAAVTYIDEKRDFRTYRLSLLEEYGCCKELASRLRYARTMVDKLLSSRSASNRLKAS
MEASUREMENT_NOTES: Isothermal titration calorimetry
Format: binding
Design: In all titrations, PBDaa345-603 protein was used at 25 μM; GST (N, cleaved yes); made in house; host or cells: E. coli C41
CONDITIONS_USED: ITC, 20 °C
pKd: −log10 of the molar value.

{"columns": ["COMPOUND", "pKd"],
 "data": [
  ["O=C(O)CCc1ccc(-c2ccc(Br)cc2)n1-c1ccccc1C(F)(F)F [Poloppin]", 4.53]
]}

###

MEASUREMENT_NOTES: Solubility in 5% DMSO
Format: physicochemical
CONDITIONS_USED: aqueous with cosolvent or surfactant or cyclodextrin, read-out: soluble at up to
Reported solubility by item:
ASSAY_READOUT: solubility

{"columns": ["COMPOUND", "RESULT"],
 "data": [
  ["CN(C)CCNC(=O)c1ccc(-c2ccc(-c3ccc(Cl)cc3)n2-c2ccccc2C(F)(F)F)cc1 [Poloppin-II]", "~100 µM"],
  ["O=C(O)CCc1ccc(-c2ccc(Br)cc2)n1-c1ccccc1C(F)(F)F [Poloppin]", "≤ 1000 µM"]
]}

###

MEASUREMENT_NOTES: Stability in mouse hepatocytes
Type: in vitro ADME
ASSAY_READOUT: half-life (min)

{"columns": ["COMPOUND_STRUCTURE", "ASSAY_READOUT", "READOUT_UNIT", "NUMBER"],
 "data": [
  ["CN(C)CCNC(=O)c1ccc(-c2ccc(-c3ccc(Cl)cc3)n2-c2ccccc2C(F)(F)F)cc1", "half-life", "min", 77]
]}

###

Test system: Panc 05.04
MEASUREMENT_NOTES: Cell viability (SRB), Panc 05.04
Assay type: cell-based
CONDITIONS_USED: Homo sapiens, Panc 05.04, 72 h, read-out: EC50, % survival, Panc 05.04, siMET, 72 h
pEC50: −log10 of the molar value.

{"columns": ["COMPOUND_STRUCTURE", "pEC50"],
 "data": [
  ["O=C(O)CCc1ccc(-c2ccc(Br)cc2)n1-c1ccccc1C(F)(F)F", 4.94]
]}
